The reader will find reported pIC50 values listed item by item below.
- Tgt: human chemokine receptor CXCR7 (Homo sapiens (Human))
- Sequence (P25106 whole entry): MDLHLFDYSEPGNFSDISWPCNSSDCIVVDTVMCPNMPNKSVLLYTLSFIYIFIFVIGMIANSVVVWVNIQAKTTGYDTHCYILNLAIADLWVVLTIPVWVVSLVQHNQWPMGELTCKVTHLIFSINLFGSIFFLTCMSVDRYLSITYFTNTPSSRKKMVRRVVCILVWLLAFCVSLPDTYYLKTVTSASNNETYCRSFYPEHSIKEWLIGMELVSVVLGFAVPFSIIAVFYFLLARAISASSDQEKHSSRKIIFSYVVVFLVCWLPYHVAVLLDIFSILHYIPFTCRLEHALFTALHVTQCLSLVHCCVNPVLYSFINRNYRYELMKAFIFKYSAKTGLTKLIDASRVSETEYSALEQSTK
- Measurement Notes: Tango CXCR7-bla U2OS beta-arrestin recruitment assay (beta-lactamase reporter, FRET), antagonism of CXCL12/SDF1-α;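 further: compounds preincubated 15 min before CXCL12 addition, then 22 h at 37 °C, FRET emission ratio read with CCF4-AM substrate after 2 h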
- Type: cell-based
- Details: antagonistic effect on CXCR7; Tango CXCR7-bla U2OS cells, CXCL12/SDF1-α at its EC80
// field semantics: pIC50 = negative decimal log of concentration (mol/L)

Examples with answers:
COc1ccccc1C1(NC(=O)[C@@H]2CN(CC3CC3)CC[C@H]2NC(=O)c2cc(-c3ccc(F)cc3F)on2)CC1 (racemic) [Example 1.198]
7.28
O=C(N[C@H]1CCN(CC2CC2)C[C@@H]1C(=O)NC1(c2ncccn2)CC1)c1noc(-c2ccc(F)cc2)c1F [Example 7.001]
7.49
O=C(N[C@@H]1CCN(C2CCCCC2)C[C@H]1C(=O)NCc1nccs1)c1cc(-c2ccc(F)cc2F)on1 (racemic) [Example 1.051]
7.31
O=C(N[C@H]1CCN(CC2CC2)C[C@@H]1C(=O)NC1(c2cccc(F)c2)CC1)c1cc(-c2ccc(F)cc2F)on1 [Example 4.063]
6.85
CC(NC(=O)[C@H]1CN(CC2CC2)CC[C@@H]1NC(=O)c1cc(-c2ccc(F)cc2F)on1)c1nc[nH]n1 (stereo partly shown) [Example 4.047]
6.50

QUERY: Data request, read-out pIC50, for CC(C)N(CCOCCO)C(=O)[C@@H]1CN(C2CCCCC2)CC[C@H]1NC(=O)c1cc(-c2ccc(F)cc2F)on1 (racemic) [Example 1.055]
RESULT: 6.63

QUERY: Query COCCCN(C)C(=O)[C@@H]1CN(C2CCCCC2)CC[C@H]1NC(=O)c1cc(-c2ccc(F)cc2F)on1 (racemic) [Example 1.027] next
RESULT: 6.93

QUERY: Query CC(CO)NC(=O)[C@@H]1CN(C2CCCCC2)CC[C@H]1NC(=O)c1cc(-c2ccc(F)cc2F)on1 (relative stereo) [Example 1.076] next
RESULT: 6.22

QUERY: Query C[C@@H](NC(=O)[C@@H]1CN(CC2CC2)CC[C@H]1NC(=O)c1cc(-c2ccc(F)cc2F)no1)c1ccccn1 (relative stereo) [Example 1.154] next
RESULT: 7.27

QUERY: Query O=C(N[C@@H]1CCN(C2CCCCC2)C[C@H]1C(=O)NCCN1CCCC1=O)c1cc(-c2ccc(F)cc2F)on1 (racemic) [Example 1.041] next
RESULT: 7.04

QUERY: Query COCC(C)(C)NC(=O)[C@@H]1CN(CC2CC2)CC[C@H]1NC(=O)c1noc(-c2ccc(F)cc2F)n1 (racemic) [Example 1.153] next
RESULT: 6.10

QUERY: Query CN(C)C(=O)[C@@H]1CN(C2CCC(F)CC2)CC[C@H]1NC(=O)c1cc(-c2ccc(F)cc2F)on1 (stereo partly shown) [Example 2.026] next
RESULT: 6.60

QUERY: Query O=C(N[C@H]1CCN(C2CCCCC2)C[C@@H]1C(=O)NC(CO)c1ccccn1)c1cc(-c2ccc(F)cc2F)on1 (stereo partly shown) [Example 4.013] next
RESULT: 6.84

QUERY: Query CN(C)C(=O)[C@@H]1CN(C2CCCCC2)CC[C@H]1NC(=O)c1cc(-c2ccc(F)cc2Cl)on1 (racemic) [Example 3.004] next
RESULT: 6.47

QUERY: Query O=C(N[C@@H]1CCN(C2CCCCC2)C[C@H]1C(=O)NCc1cccnc1)c1cc(-c2ccc(F)cc2F)on1 (racemic) [Example 1.048] next
RESULT: 6.56

QUERY: Query O=C(N[C@H]1CCN(C2CCCC2)C[C@@H]1C(=O)NC1(c2ncccn2)CC1)c1ncc(-c2ccc(F)cc2F)o1 [Example 2.098] next
RESULT: 7.03

QUERY: Query O=C(N[C@@H]1CCN(C2CCCCC2)C[C@H]1C(=O)N[C@H]1C[C@@H]1c1ccccc1)c1cc(-c2c(F)cc(F)cc2F)on1 (single isomer, unassigned) [Example 1.046a] next
RESULT: 6.32

QUERY: Query O=C(N[C@@H]1CCN(CC2CC2)C[C@H]1C(=O)NC1(c2ncccn2)CC1)c1cc(-c2ccc(C(F)(F)F)cc2)on1 (single isomer, unassigned) [Example 1.192b] next
RESULT: 6.91
